System: tumor cell
ASSAY DETAILS: Cytotoxicity assay (MTS)
Assay type: cell-based
TEST PARAMETERS: 72 h; incubation for three days; read-out: IC50, tumor cell growth inhibition (MTS)
pIC50: −log10 of the molar value.
Assign pIC50 to each entry below.

What pIC50 appears in the records for this compound with tumor cell? Cc1ccc(C(=O)N(CCN)[C@@H](c2nc3c(oc4ccc(F)cc43)c(=O)n2Cc2cc(C)cs2)C2CC2)cc1 [Compound 222] > 4.52

Provide the documented pIC50 with tumor cell as the system for CCC(c1nc2c(oc3ccccc32)c(=O)n1Cc1ccccc1)N(CCCCN)C(=O)c1ccc(C)cc1 (centres unmarked) [Compound 22] > 4.52

I'm curious: which pIC50 was measured for Cc1ccc(C(=O)N(CCN)[C@@H](c2nc3c(oc4ccc(F)cc43)c(=O)n2Cc2ccc(Cl)o2)C2CC2)cc1 [Compound 224] tested on tumor cell? > 4.52

Form field - read-out: pIC50; system: tumor cell; submitted item: Cc1ccc(C(=O)N(CCCN)C(c2nc3c(oc4ccc(F)cc43)c(=O)n2Cc2ccsc2)C(C)C)cc1 (centres unmarked) [Compound 76] > 4.52

// lookup pIC50 | system=tumor cell | key= Cc1csc(Cn2c(C(C(C)C)N(CCN)C(=O)c3ccc(Br)cc3)nc3c(oc4ccc(F)cc43)c2=O)c1 (centres unmarked) [Compound 167] > 4.52

I'm curious: which pIC50 was measured for CCC(c1nc2c(oc3ccc(Cl)cc32)c(=O)n1Cc1ccccc1)N(CCCN)C(=O)c1ccc(C)cc1 (centres unmarked) [Compound 31] tested on tumor cell? > 4.52

Form field: pIC50 recorded for CC(C)C(c1nc2n(c(=O)c1Cc1ccccc1)Cc1ccccc1-2)N(CCCN)C(=O)c1ccc(Br)cc1 (centres unmarked) [Compound 155] with tumor cell (enter value) > 4.52

Find pIC50 (tumor cell) for the entry Cc1ccc(C(=O)N(CCCN)C(c2nc3c(oc4ccc(Cl)cc43)c(=O)n2Cc2cccs2)C(C)C)cc1 (centres unmarked) [Compound 43] > 4.52

Give the reported pIC50 for Cc1ccc(C(=O)N(CCN)[C@@H](c2nc3c(oc4ccc(F)cc43)c(=O)n2Cc2ccco2)C(C)C)cc1 [Compound 185] (system: tumor cell). > 4.52

Lab note: need pIC50 for Cc1ccc(C(=O)N(CCCN)C(c2nc3n(c(=O)c2Cc2ccccc2)Cc2ccccc2-3)C(C)C)cc1F (centres unmarked) [Compound 152] on tumor cell, anyone have it? > 4.52

Tell me reported pIC50 for Cc1ccc(C(=O)N(CCN)C(c2nc3c(oc4ccc(Cl)cc43)c(=O)n2Cc2cc(Br)co2)C(C)C)cc1 (centres unmarked) [Compound 99] , tested with tumor cell. > 4.52

Request: pIC50, test system tumor cell, entry Cc1ccc(C(=O)N(CCN)C(c2nc3c(oc4ccc(Cl)cc43)c(=O)n2Cc2ccc(C#N)s2)C(C)C)cc1 (centres unmarked) [Compound 48] > 4.52

Missing value: pIC50, tumor cell, entry Cc1ccc(C(=O)N(CCCN)C(c2nc3cc4ccccc4cc3c(=O)n2Cc2ccc(Cl)s2)C(C)C)cc1 (centres unmarked) [Compound 5] . Fill in? > 4.52

Look up pIC50 with tumor cell for this compound: Cc1ccc(C(=O)N(CCCN)C(c2nc3c(C#N)c4ccccc4cc3c(=O)n2Cc2ccc(Cl)s2)C(C)C)cc1 (centres unmarked) [Compound 8] > 4.52
